Source of measurements: patent US20150368338A1

Can you tell me IC50, ISRE assay for the items I'm about to list?
- experimentalTarget: IFN-αC (human, UniProt P01566 24-189)
- testDescription: cell-based or functional assay
Numbers only; they are read as nM.

// lookup IC50, ISRE assay for IFWM3332 (antibody, IgG1, V domains shown) VH: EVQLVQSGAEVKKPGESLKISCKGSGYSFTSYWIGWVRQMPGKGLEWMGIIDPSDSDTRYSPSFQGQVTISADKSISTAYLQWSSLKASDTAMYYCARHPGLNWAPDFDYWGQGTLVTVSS VL: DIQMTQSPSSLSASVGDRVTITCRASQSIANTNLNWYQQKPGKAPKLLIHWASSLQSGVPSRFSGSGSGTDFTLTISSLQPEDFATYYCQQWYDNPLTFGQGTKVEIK
0.479

// lookup IC50, ISRE assay for IFWM3421 (antibody, IgG1, V domains shown) VH: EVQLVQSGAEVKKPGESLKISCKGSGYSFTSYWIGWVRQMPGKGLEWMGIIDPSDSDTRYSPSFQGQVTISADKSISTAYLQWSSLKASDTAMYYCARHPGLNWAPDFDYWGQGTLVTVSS VL: DIQMTQSPSSLSASVGDRVTITCRASQSIDGFLNWYQQKPGKAPKLLIYFASSLQSGVPSRFSGSGSGTDFTLTISSLQPEDFATYYCQQSYDLPITFGQGTKVEIK
0.02

// lookup IC50, ISRE assay for IFWM3423 (antibody, IgG1, V domains shown) VH: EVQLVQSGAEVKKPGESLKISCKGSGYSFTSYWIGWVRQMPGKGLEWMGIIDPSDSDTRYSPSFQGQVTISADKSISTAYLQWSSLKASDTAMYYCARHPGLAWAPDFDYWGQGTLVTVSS VL: DIQMTQSPSSLSASVGDRVTITCRASQSIDGFLNWYQQKPGKAPKLLIYFASSLQSGVPSRFSGSGSGTDFTLTISSLQPEDFATYYCQQSYDLPITFGQGTKVEIK
0.012

// lookup IC50, ISRE assay for IFWM3308 (antibody, IgG1, V domains shown) VH: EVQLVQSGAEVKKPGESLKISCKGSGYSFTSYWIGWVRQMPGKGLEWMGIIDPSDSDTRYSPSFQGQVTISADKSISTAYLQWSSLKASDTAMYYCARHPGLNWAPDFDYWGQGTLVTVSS VL: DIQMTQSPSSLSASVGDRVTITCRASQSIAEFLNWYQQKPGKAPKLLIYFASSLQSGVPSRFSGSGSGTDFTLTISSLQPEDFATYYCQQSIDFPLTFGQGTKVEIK
0.996

// lookup IC50, ISRE assay for IFWM3328 (antibody, IgG1, V domains shown) VH: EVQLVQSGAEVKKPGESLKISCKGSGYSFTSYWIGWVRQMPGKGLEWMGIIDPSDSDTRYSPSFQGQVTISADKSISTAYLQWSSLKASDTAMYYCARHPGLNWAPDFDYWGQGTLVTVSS VL: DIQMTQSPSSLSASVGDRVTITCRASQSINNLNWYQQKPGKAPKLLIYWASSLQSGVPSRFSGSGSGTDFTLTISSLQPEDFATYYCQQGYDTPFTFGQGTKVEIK
1.42
